Values from paper PMC10786891

TARGET SYSTEM: T1, EsCas13d, nuclease-dead (Eubacterium siraeum, UniProt B0MS50, R295A;H300A;R849A;H854A)
T1 sequence: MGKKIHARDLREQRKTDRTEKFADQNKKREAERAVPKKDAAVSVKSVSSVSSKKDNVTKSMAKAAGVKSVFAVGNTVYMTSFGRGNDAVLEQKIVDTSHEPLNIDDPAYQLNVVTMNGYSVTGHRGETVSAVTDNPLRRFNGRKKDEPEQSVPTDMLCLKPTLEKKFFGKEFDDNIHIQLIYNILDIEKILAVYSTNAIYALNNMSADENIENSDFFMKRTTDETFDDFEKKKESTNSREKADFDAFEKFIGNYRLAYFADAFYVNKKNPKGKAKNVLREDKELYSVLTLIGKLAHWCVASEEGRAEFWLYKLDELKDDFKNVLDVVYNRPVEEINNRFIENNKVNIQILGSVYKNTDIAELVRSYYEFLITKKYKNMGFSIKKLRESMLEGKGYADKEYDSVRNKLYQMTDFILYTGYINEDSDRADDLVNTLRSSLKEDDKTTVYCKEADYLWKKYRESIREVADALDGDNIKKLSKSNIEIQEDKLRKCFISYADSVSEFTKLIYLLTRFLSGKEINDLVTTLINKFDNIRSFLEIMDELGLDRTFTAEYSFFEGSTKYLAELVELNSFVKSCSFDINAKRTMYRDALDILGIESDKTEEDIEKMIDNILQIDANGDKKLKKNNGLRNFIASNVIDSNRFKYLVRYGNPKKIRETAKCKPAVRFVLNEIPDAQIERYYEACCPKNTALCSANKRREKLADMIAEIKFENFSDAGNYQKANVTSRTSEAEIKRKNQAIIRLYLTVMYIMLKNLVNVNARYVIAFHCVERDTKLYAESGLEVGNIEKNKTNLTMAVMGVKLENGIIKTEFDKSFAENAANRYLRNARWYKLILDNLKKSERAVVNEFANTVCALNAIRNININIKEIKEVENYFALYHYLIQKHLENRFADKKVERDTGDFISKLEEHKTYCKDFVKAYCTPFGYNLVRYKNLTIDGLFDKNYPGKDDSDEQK
ASSAY NOTES: crRNA (strand 1, pre-loaded); Mg2+; 40 mM Tris-HCl pH 7.5, 150 mM NaCl, 6 mM MgCl2, 1 mM DTT, 0.1% Tween-20, 0.2 mg/ml BSA; 25 C; 10 min per concentration, then washed
PARTICULARS: tags: His6-TwinStrep-SUMO cleaved; N-terminal SNAP kept (SNAP-Surface 488); label: 3' end held by stalled T7 RNA polymerase
TEST READOUT: pKd
Quick note: pKd means taking -log10 of the concentration in moles per liter.

See these solved cases before continuing.
| BINDER | TEST READOUT | RESULT |
| --- | --- | --- |
| target 2 MT 5'PFS UCU 3'PFS UAC (mixed) RNA 1: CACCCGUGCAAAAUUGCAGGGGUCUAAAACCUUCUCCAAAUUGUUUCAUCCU RNA 2: GGGAAUGGAUCCACAUCUACGAAUUCUCUAGGAUGAAACAAUUUGGAGAAGUACAGAUCGGAAGAGCACACGU | pKd | 7.89 |
| target 1 insC 3' of 13,insC 3' of 10 (mixed) RNA 1: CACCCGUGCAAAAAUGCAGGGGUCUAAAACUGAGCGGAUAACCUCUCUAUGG RNA 2: GGGAAUGGAUCCACAUCUACGAAUUCGUACCAUAGAGAGCGUUCAUCCGCUCACCGAGAUCGGAAGAGCACACGU | pKd | 7.89 |

Kindly consider the entry below.
Challenge: What value of pKd has been recorded for this entry: target 1 C6U,U11C (mixed) RNA 1: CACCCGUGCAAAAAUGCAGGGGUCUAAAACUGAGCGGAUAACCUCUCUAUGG RNA 2: GGGAAUGGAUCCACAUCUACGAAUUCGUACCAUAGAGAGGCUAUCUGCUCACCGAGAUCGGAAGAGCACACGU
Response given: 8.04
